The reported measurements were obtained from patent US5686486A.

molecular target: HIV-1 protease (Human immunodeficiency virus type 1 group M subtype B, UniProt P04585); experiment: biochemical; conditions: read-out: HIV-1 FITC KI
pKi: −log10 of the molar value.
Quick rule: pKi of at least 8 means condition met, below that means condition not met.

Check this compound for pKi at or above 8: O=c1oc2c(c(O)c1C(c1cccc(NS(=O)(=O)c3ccc(S(=O)(=O)c4ccccc4)s3)c1)C1CC1)CCCCCC2 (stereo not shown)
condition met

Check this compound for pKi at or above 8: O=c1oc2c(c(O)c1C(c1cccc(NS(=O)(=O)c3cc(Br)c(Br)s3)c1)C1CC1)CCCCCC2 (stereo not shown)
condition met

Check this compound for pKi at or above 8: CCCC(c1cccc(N)c1)c1c(O)c2c(oc1=O)CCCCCC2 (stereo not shown)
condition not met

Check this compound for pKi at or above 8: CCC(c1ccccc1)c1c(O)c2c(oc1=O)C(CC1CC1)CCC2 (stereo not shown)
condition not met

Check this compound for pKi at or above 8: CC(C)CC1CCCCCc2c1oc(=O)c(C(c1ccccc1)C1CC1)c2O (stereo not shown)
condition not met

Check this compound for pKi at or above 8: CN(C)c1ccc(N=Nc2ccc(S(=O)(=O)Nc3cccc(C(c4c(O)c5c(oc4=O)CCCCCC5)C4CC4)c3)cc2)cc1 (stereo not shown)
condition met

Check this compound for pKi at or above 8: CCCC1CCCCCc2c1oc(=O)c(C(c1ccccc1)C1CC1)c2O (stereo not shown)
condition not met

Check this compound for pKi at or above 8: O=c1oc2c(c(O)c1C(c1ccccc1)C1CC1)CCCCC2Cc1ccccc1 (stereo not shown)
condition not met

Check this compound for pKi at or above 8: O=c1oc2c(c(O)c1C(c1ccc(CO)s1)C1CC1)CCCCCC2 (stereo not shown)
condition not met

Check this compound for pKi at or above 8: O=c1oc2c(c(O)c1C(c1cccc(NS(=O)(=O)c3cccc(S(=O)(=O)N4CCOCC4)c3)c1)C1CC1)CCCCCC2 (stereo not shown)
condition met

Check this compound for pKi at or above 8: O=c1oc2c(c(O)c1C(c1cccc(NS(=O)(=O)c3cccc(NCCO)c3)c1)C1CC1)CCCCCC2 (stereo not shown)
condition met

Check this compound for pKi at or above 8: CC(C)(C)OC(=O)NCC(=O)Nc1cccc(C(c2c(O)c3c(oc2=O)CCCCCC3)C2CC2)c1 (single isomer, unassigned) [Example 239]
condition met

Check this compound for pKi at or above 8: COCC1CCCCCc2c1oc(=O)c(C(c1ccccc1)C1CC1)c2O (stereo not shown)
condition not met

Check this compound for pKi at or above 8: O=C(CO)Nc1cccc(S(=O)(=O)Nc2cccc(C(c3c(O)c4c(oc3=O)CCCCCC4)C3CC3)c2)c1 (stereo not shown)
condition met

Check this compound for pKi at or above 8: CN(C)c1ccc(S(=O)(=O)Nc2cccc(C(c3c(O)c4c(oc3=O)CCCCCC4)C3CC3)c2)cc1 (stereo not shown)
condition met
